TESTED_TARGET: T1, purified recombinant IFNAR-1 extracellular fragment (human, UniProt P17181 28-436)
T1 construct: extracellular domain; also called soluble IFNAR-1; soluble IFNAR
T1 sequence (looked up): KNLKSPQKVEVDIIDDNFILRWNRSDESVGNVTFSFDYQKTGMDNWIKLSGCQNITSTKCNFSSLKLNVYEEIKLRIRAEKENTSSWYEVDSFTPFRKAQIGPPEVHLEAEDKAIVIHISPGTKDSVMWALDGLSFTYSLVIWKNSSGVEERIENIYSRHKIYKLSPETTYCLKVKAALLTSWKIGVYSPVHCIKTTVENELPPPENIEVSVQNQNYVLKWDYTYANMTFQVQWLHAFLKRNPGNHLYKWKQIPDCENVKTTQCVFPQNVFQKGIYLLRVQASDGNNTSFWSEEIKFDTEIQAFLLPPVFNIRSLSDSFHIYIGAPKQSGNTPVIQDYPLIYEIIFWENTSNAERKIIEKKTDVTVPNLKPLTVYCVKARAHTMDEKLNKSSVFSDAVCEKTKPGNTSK
PROCEDURE_DETAILS: Biacore, maximal association on IFNAR-1 relative to M3K1

BINDER	% activity relative to M3K1
M3-11 (X = G) heavy chain with K1 light chain (antibody, V domains shown, Position counted within VH CDR3; also called M3-11 G) VH: EVQLLESGGGLVQPGGSLRLSCAFSGFTLSTSGMGIGWVRQAPGKGLEWVAHIWWDDDKYYNPSLKSRFTISRDTSKNTVYLQMNSLRAEDTAVYYCARNYYPYDAWFDGWGQGTLVTVS VL: DIQMTQSPSSLSASVGDRVTITCSASSSINSNHLHWYQQKPGKAPKLLIYRTSILASGVPSRFSGSGSGTSFTLTISSLQPEDFATYYCQQGSNIPFTFGQGTKVEIK	63%
M3-11 (X = A) heavy chain with K1 light chain (antibody, V domains shown, Position counted within VH CDR3; also called M3-11 A) VH: EVQLLESGGGLVQPGGSLRLSCAFSGFTLSTSGMGIGWVRQAPGKGLEWVAHIWWDDDKYYNPSLKSRFTISRDTSKNTVYLQMNSLRAEDTAVYYCARNYYPYDAWFDAWGQGTLVTVS VL: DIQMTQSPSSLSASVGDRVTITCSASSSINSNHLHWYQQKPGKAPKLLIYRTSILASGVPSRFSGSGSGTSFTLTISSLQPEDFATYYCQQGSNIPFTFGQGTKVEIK	93%
